All figures here come from patent US20210238260A1.

# Study target: T1, Factor VIIIa (recombinant FVIII, Kogenate FS, activated with alpha-thrombin) (UniProt P00451 20-2351)
# T1 construct: also called FVIIIa
# T1 sequence (looked up): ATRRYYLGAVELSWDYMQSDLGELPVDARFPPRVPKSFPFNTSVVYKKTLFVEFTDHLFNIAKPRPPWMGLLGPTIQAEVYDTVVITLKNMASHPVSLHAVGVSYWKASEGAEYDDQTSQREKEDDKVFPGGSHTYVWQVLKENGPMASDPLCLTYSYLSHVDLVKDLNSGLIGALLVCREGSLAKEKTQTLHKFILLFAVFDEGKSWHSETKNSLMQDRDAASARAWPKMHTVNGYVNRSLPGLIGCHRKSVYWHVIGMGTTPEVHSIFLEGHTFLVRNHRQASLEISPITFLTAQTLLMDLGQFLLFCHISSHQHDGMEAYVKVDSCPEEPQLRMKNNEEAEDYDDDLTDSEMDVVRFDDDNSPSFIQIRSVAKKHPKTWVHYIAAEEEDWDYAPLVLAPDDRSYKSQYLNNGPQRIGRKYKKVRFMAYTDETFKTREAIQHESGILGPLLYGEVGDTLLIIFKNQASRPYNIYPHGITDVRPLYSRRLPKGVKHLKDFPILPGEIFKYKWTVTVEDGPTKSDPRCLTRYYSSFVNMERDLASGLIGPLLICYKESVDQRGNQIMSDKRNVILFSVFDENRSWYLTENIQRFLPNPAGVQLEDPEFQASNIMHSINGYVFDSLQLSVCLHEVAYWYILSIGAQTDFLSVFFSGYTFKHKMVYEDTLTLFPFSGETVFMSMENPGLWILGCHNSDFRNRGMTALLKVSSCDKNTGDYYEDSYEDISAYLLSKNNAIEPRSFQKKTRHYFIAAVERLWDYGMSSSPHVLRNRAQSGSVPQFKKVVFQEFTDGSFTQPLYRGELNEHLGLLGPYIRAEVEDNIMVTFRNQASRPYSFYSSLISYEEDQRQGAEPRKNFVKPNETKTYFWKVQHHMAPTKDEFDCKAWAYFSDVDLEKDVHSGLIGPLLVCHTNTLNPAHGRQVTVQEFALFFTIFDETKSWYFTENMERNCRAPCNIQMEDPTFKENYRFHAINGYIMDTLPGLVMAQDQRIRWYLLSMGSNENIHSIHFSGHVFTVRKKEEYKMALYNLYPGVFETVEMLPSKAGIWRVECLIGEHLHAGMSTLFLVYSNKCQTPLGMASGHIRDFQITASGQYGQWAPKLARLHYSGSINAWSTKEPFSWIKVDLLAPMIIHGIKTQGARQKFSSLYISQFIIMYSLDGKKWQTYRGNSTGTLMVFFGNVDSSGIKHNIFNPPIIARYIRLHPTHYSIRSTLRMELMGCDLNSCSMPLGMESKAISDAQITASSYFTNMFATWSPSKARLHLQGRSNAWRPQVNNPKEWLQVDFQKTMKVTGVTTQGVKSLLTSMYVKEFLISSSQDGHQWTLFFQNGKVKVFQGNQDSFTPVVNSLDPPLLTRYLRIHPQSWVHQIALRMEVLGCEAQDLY
# Experiment summary: functional cofactor affinity KD-app: fluorogenic FX activation (Xase) assay, FVIIIa titrated, PC/PS vesicles, saturating FX

Binder: FIXa-Y155F/R318Y/R338E/T343R (enzyme) chain 1: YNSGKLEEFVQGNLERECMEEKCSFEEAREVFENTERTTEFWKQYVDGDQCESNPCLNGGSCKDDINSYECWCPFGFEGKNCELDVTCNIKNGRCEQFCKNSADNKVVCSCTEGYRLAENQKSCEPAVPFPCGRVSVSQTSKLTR chain 2: VVGGEDAKPGQFPWQVVLNGKVDAFCGGSIVNEKWIVTAAHCVETGVKITVVAGEHNIEETEHTEQKRNVIRIIPHHNYNAAINKYNHDIALLELDEPLVLNSYVTPICIADKEYTNIFLKFGSGYVSGWGRVFHKGYSALVLQYLRVPLVDRATCLESTKFRIYNNMFCAGFHEGGRDSCQGDSGGPHVTEVEGTSFLTGIISWGEECAMKGKYGIYTKVSRYVNWIKEKTKLT
Kd: 8.4 nM
--
Binder: FIXa-R318Y/R338E/T343R/R403E/E410S (enzyme, also called R150Y/R170E/T175R/R233E/E240S (chymotrypsin numbering)) chain 1: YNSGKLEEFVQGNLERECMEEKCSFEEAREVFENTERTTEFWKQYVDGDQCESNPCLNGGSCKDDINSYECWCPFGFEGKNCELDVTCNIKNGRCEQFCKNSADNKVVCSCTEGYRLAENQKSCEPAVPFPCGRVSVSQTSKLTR chain 2: VVGGEDAKPGQFPWQVVLNGKVDAFCGGSIVNEKWIVTAAHCVETGVKITVVAGEHNIEETEHTEQKRNVIRIIPHHNYNAAINKYNHDIALLELDEPLVLNSYVTPICIADKEYTNIFLKFGSGYVSGWGRVFHKGYSALVLQYLRVPLVDRATCLESTKFRIYNNMFCAGFHEGGRDSCQGDSGGPHVTEVEGTSFLTGIISWGEECAMKGKYGIYTKVSEYVNWIKSKTKLT
Kd: 23.2 nM
